Molecular target: DS-Cav1 (RSV F-protein, pre-form, in-house) (respiratory syncytial virus (RSV), UniProt P03420 26-513)
Sequence (P03420 26-524): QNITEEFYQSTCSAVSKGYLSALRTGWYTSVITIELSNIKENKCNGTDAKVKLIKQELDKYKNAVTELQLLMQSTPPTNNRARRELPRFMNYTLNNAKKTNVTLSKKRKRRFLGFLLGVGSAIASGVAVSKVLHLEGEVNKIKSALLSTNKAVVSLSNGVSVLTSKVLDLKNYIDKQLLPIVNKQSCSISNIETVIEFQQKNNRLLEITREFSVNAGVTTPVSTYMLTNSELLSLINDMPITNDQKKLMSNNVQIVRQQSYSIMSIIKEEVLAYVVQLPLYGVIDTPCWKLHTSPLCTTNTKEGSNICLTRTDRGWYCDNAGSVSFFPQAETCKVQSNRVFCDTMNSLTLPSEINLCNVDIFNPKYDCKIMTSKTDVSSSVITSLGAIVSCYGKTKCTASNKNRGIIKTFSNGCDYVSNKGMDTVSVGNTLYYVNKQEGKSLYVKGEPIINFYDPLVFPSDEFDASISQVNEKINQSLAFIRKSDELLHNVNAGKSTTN
Experiment: ELISA, coated DS-Cav1, IgG titrated

binder: 2E7 (antibody, V domains shown, IgG made in Expi293; also called #6) VH: EVQLVESGGGLVKPGGSLRLSCAGSGFTFSSYTMHWVRQAPGKGLEWVSSITGGSSYVDYSASVKGRFTISRDNAQSSLYLQMNSLRAEDTAVYYCARDDYGSGSYSNWFDPWGQGTLVTVSS VL: SYELTQPPSASGTPGQRVTISCTGSSSNIGAGYDVHWYQQLPGAAPRLLMFGNSNRPSGVPDRFSGSKSGTSASLAITGLQADDEADYYCQSYDRSLSHVFGTGTKVTVLG
Kd: ~0.4 nM

binder: 3E10 (antibody, V domains shown, IgG made in Expi293; also called #20; 20) VH: EVQLVESGGGLVKPGGSLRLSCAASGFTFTSYRMHWVRQAPGKGLEWVSSITGGGNYIEYADSVKGRFTISRDNAKNSLDLQMNSLRAEDTAIYYCARDMYGLGSYYSPNYFDPWGQGTLVTVSS VL: QPVLTQPPSVSGAPGQRVTISCTGSSSNIGAGYDVHWYQQVPGTAPKLLIFGSTNRPSGVPDRFSGSKSGASASLAITGLQTEDEADYYCQSYDRSLSHVFGTGTKVTVLG
Kd: ~0.52 nM

binder: 4G1 (antibody, V domains shown, IgG made in Expi293; also called #33; 33) VH: QVTLKESGGGLVKPGGSLRLSCAASGFRLSSYGMNWVRQAPGKGLEWVSSISASSSFINYADSVRDRFTISRDNAKNSLYLQMNSLRAEDTAVYYCARDDYGSGSYSNWFDPWGQGTLVTVSS VL: QSVLTQPPSVSGAPGQRVTISCTGNSSNLGAGYDVHWYQQLPGRAPKLLIFANTNRPSGVPDRFSGSKSGASASLAITSLQADDEADYYCQSYDRSLSHVFGTGTKVTVLG
Kd: ~0.27 nM

binder: 2H2 (antibody, V domains shown, IgG made in Expi293; also called #7) VH: QVQLVQSGGGLIQPGGSLRLSCAGSGFTFSSYTMHWVRQAPGKGLEWVSSITGGSSYVDYSASVKGRFTISRDNAQSSLYLQMNSLRAEDTAVYYCARDDYGSGSYSNWFDPWGQGTLVTVSS VL: QSVLTQPPSVSGAPGQRVTISCTGSSSNIGAGYDVHWYQQLPGTAPKLLIFANTNRPSGVPDRFSGSKSGASASLAITGLQADDEADYYCQSYDRSLSHVFGTGTKVTVLG
Kd: ~0.44 nM

binder: 10E7 (antibody, V domains shown, IgG made in Expi293; also called #13; 13) VH: EVQLVESGGGLVKPGGSLRLSCAASGFTFTSYRMHWVRQAPGKGLEWVSSITGGGNYIEYADSVKGRFTISRDNAKNSLDLQMNSLRAEDTAIYYCARDMYGLGSYYSPNYFDSWGQGTLVTVSS VL: QSVLTQPPSVSGAPGQRVTISCTGSSSNIGAGYDVHWYQQLPGRAPKLLIFANTNRPSGVPDRFSGSKSGASASLAITGLQADDEADYYCQSYDRSLSHVFGTGTKVTVLG
Kd: ~1.73 nM
